Target: T1, His-tagged human TIGIT (human, UniProt Q495A1 22-141)
T1 construct: SPR analyte; also called human TIGIT protein; not shown: His tag
T1 sequence: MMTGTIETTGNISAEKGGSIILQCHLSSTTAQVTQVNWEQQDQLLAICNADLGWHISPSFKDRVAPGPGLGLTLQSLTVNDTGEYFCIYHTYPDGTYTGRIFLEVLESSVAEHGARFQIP
Test: SPR experiment 2, IgG from HEK293 supernatant captured
endpoint: Kd (nM)

binder="humanized TIGIT-19 antibody 19VH4 + 19VL1.M4 (antibody, V domains shown, Full-length IgG, tested as HEK293 supernatant) VH: QVQLVQSGAEVKKPGASVKVSCKASGYAFSRYSMYWVRQAPGQGLEWIAFIDPYNGGSTYNQRFRGKATLTVDTSISTAYMELSRLRSDDTAVYYCARGGDYGWYLGVWGQGTLVTVSS VL: DIQMTQSPSSLSASVGDRVTITCRPSENIYTYLSWYQQKPGKAPKLLIYNAKSLPSGVPSRFSGSGSGTDFTLTISSLQPEDFATYYCQHHYGNPLTFGQGTKVEIK" observed=0.023
